Test: compound effects on differentiated 3T3-L1 adipocyte viability – cell-based, 3T3-L1 adipocytes, calcein-AM fluorescence, 48 h, basal, profiling panel (AID 1163); also: test concentration not given here
Conditions: 3T3-L1 adipocytes viability, higher = more signal
Measured quantity: z-score
Output: the number by itself.

Complete the entry with z-score for CC(C)c1ccc(NN2C(C(O)c3ccc(C#N)cc3)C=CC3C(=O)N(c4ccccc4)C(=O)C32)cc1 (stereo not drawn) -0.708

Complete the entry with z-score for [N-]=[N+]=Nc1ccccc1[C@H]1OC(c2ccc(OCCCO)cc2)=N[C@@]1(Cc1ccccc1)C(=O)NCCN1CCOCC1 0.91

Complete the entry with z-score for COCC(=C=CC[C@H](O)c1ccccc1OCCO)C[C@H](O)c1ccccn1 0.381

====

Give composite z-score for every item shown.
Assay: probe aWnt5a binding to arrayed compounds – biochemical, biotinylated probe, 635/667 nm fluorescence, primary screen (AID 1113);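 also: score merges 667 nm fluorescence intensity with signal-to-noise per printed feature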
Conditions: small-molecule microarray, higher = more signal
Output: the number by itself.

Complete the entry with composite z-score for CCCCCN1CC=CC23O[C@@H]4/C=C\CCCOC(=O)C4[C@H]2C(=O)N(C(C)CO)[C@@H]3C1=O (some centres undefined) -0.203

Complete the entry with composite z-score for C=CCC(OC(C)=O)[C@@H]1[C@@H](N(Cc2cccc3ccccc23)C(=O)Cc2ccc(OC)cc2)c2cc(OCCCO)ccc2N1C(=O)c1ccc(-c2ccccc2)cc1 (some centres undefined) -0.157

Complete the entry with composite z-score for COCCOC(=O)N1C(=O)[C@@]2(c3cc(C#CC4=CCCCC4)ccc31)[C@H](C(=O)Nc1nc3ccccc3s1)[C@H]1C(=O)O[C@H](c3ccccc3)[C@H](c3ccccc3)N1[C@@H]2c1ccc(O)cc1 -0.15

Complete the entry with composite z-score for COc1cc2c(cc1O)C(C1CC1)N(C)CC2 (centres undefined) -0.0101

====

Assay: small molecules captured by biotinylated probe aFSTL3 – biochemical, small-molecule microarray, fluorescence 635/667, stem cell growth factor project, primary screen (AID 1064);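 also: measures binding of the biotinylated anti-FSTL3 antibody to printed compounds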
Conditions: higher = more signal
Measured quantity: composite z-score
Output: the number by itself.

Complete the entry with composite z-score for [N-]=[N+]=Nc1ccccc1C[C@@]1(C(=O)NCCN2CCOCC2)N=C(c2ccc(OCCCO)cc2)O[C@@H]1c1ccccc1N=[N+]=[N-] 0.59

Complete the entry with composite z-score for CC[C@@H]1C=C(C(=O)O)[C@H](c2ccccc2)N1S(=O)(=O)c1ccc(C)cc1 0.262

Complete the entry with composite z-score for CCOC(=O)C1=C[C@@H](C(C)C)N(S(=O)(=O)c2ccc(C)cc2)[C@H]1c1ccc(C(F)(F)F)cc1 -0.235

Complete the entry with composite z-score for CC1CC/C=C\[C@H]2OC34C=CCN(C(C)C)C(=O)[C@H]3N(CCO)C(=O)[C@@H]4C2C(=O)O1 (stereo partly drawn) 0.689

Complete the entry with composite z-score for Cc1ccccc1C(O)C1C=CC2C(=O)NC(=O)C2N1Nc1ccccn1 (stereo not drawn) 0.888

Complete the entry with composite z-score for O=C1C2C=CC(C(O)c3ccco3)N(Nc3ccccc3F)C2C(=O)N1c1ccccc1 (stereo not drawn) -0.111

Complete the entry with composite z-score for NC(=O)NCC#Cc1ccc2c(c1)[C@]1(C(=O)N2)[C@H](c2ccccc2OCCO)N2[C@H](c3ccccc3)[C@H](c3ccccc3)OC(=O)[C@H]2[C@@H]1C(=O)O 0.129

Complete the entry with composite z-score for CCCN1C(=O)[C@]2(Cc3ccccc31)N=C(c1ccc(OCCCO)cc1)O[C@@H]2c1ccccc1 0.552
